assayed.target: LmMetAP1 (Leishmania major)
Sequence (Q4QDG7 1-401): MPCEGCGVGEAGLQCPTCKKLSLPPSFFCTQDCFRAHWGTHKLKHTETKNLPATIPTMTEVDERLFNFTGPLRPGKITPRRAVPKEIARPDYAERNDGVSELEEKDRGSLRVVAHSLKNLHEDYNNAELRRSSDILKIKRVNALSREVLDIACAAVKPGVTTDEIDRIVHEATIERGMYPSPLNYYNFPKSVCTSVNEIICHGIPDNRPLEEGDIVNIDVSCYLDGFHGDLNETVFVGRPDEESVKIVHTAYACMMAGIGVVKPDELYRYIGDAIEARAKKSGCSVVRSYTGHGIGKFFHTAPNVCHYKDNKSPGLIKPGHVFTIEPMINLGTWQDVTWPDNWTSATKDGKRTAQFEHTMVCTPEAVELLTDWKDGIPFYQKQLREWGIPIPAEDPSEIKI
method.notes: LmMetAP1 enzyme inhibition (l-Met-pNA)
Type: biochemical
I'd appreciate it if you could supply IC50 values for the items below.

{"record.smiles": "Oc1ccccc1/C=N/Nc1ncnc2sc3c(c12)CCCC3", "assayed.target": "LmMetAP1 (Leishmania major)", "IC50": "> 2500 nM"}

Attention now turns to another entry.
Ask: Quick one: IC50 of `Cc1nc(-c2ccccn2)nc(N(C)Cc2ccccc2)c1Cl` ?
Result: > 1000 nM

====

method.notes: Pharmacokinetic study in male Sprague Dawley rats
Type: in vivo
experimental.context: male, Sprague Dawley, rat, plasma, iv, 2 mg/kg, Intravenous (Dose: 2 mg/kg), non-compartmental analysis, read-out: VD (volume of distribution)
Experimental: Pharmacokinetic evaluation elucidates the fate of compound 5 in living systems. The pharmacokinetic study of compound 5 was also a means to verify the applicability of the LC-MS/MS assay method and the formulations. […] The plasma and urine samples were analyzed (within 7 days) using the developed LC/MS/MS method to determine the concentration of compound 5. […]
assay.endpoint: Vd (L/kg)
Numbers only, in L/kg.

Ask: For the molecule `Oc1c(Br)cc(Cl)c2cccnc12` , what Vd is on record?
Result: 24.6

Values from patent US20170304288A1
